Measured binding signal, listed per entry.
Biological target: TDP-43 (Homo sapiens, UniProt Q13148 1-414)
Sequence (Q13148 whole entry): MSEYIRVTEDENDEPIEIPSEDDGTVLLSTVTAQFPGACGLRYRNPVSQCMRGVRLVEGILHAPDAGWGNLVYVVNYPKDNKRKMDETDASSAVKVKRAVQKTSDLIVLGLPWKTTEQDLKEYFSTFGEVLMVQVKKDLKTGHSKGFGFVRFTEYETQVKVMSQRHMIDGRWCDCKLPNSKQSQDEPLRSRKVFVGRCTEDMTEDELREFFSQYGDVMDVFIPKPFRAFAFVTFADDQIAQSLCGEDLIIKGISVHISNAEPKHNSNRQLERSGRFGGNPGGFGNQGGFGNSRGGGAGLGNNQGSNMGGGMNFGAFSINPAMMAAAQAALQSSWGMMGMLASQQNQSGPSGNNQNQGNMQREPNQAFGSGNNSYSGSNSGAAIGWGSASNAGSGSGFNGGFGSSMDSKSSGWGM
Assay: RNA Bind-n-Seq with designed 260-mer pool; 25 mM Tris-HCl, 150 mM KCl, 3 mM MgCl2, BSA (printed 500 mg/mL), 20 units/mL SUPERase IN; pH not stated; 500 nM RNA pool, 1 h, 4 C; TDP-43 5, 50, 500 nM; high values mean tight binding
Details: protein: recombinant; tags: SBP (GST cleaved off with PreScission; pGEX-GST-SBP)
The full ranking holds about 9,900 sequences; the median of “r (bound/input frequency ratio)” is about 0.7, and the highest 2% start at about 6.5. The sample as a whole holds a higher share of the highest values than the screen did.

Binder	binding signal
ENSMUSG00000028439.103|Fam219a (ssRNA) RNA: GGGAGUUCUACAGUCCGACGAUCGCUUCGAUAUCCGCAUGCUAAUACCUAUUUGUGUUUUCCCCUCAUCUCCAGAUGGGAAGCCUGGCAGCGCUGUCCAAAGGGAUACUGUCUCUCCAUUAGAUAACUCCUUCCACUGUCUCCCUCCCCCGCUUUCUUACUUUCUGAGGGUUGGGAAGGUAAGAUGGGCCUUAGAGAGAAGCCAGGUUUGGGGAUGGUAUGACCUGUUCUCACCGGUCUCUAACCAGUGCAUCUGUCUCUCUGCCUCAUCCCCACACCGCCCUGCCACCCCCAGUCUUCUGUCCUCUUGCGGUCGCACUAGUGUGGAAUUCUCGGGUGUCAAGG	0.421 R (bound/input frequency ratio)
ENSMUSG00000031028.204|Tub|197:201;203:208 (ssRNA) RNA: GGGAGUUCUACAGUCCGACGAUCGCUUCGAUAUCCGCAUGCUACUCUUCCCAGUUCCAGAGAUGAAACCCCUCCGAGUUAAUGUAUAAGGUUGGAAACCUUUCAGUAGGGAAUCAGGCAGUUCCCUGUUGAAAGUUGUCUGAGUUUUUGCACACCAUUCUGAUCUGAUGUGGCCUGUGCCUGGCUCCUCUAUGAGGACUUCGAGCUGUGCACAGACCUUAGCAGGACCACUGCACACUUACACACACACACACAGGCAGCCCAAGGGUUCUGGGGCUGGGCUUGGACACGCCCUCCAUUGGGACUCUUGCGGUCGCACUAGUGUGGAAUUCUCGGGUGUCAAGG	1.16 R (bound/input frequency ratio)
